- Protocol details: Quantum yield in CH2Cl2 (DCM) solution
- Format: physicochemical
φDCM (quantum yield) overview
In your answer, state the number alone without any accompanying words.

COc1cc2c(cc1C#Cc1ccc(C)cc1)[Si](c1ccccc1)(c1ccccc1)c1cc(C#Cc3ccc(C)cc3)c(OC)cc1-2 [4Si] ... 0.89
COc1cc2c(cc1C#Cc1cccc(F)c1)[Si](c1ccccc1)(c1ccccc1)c1cc(C#Cc3cccc(F)c3)c(OC)cc1-2 [3Si] ... 0.80
COc1ccc2cc(C#Cc3c[c]4c(cc3OC)-c3cc(OC)c(C#Cc5ccc6cc(OC)ccc6c5)c[c]3[Ge]4([c]3ccccc3)[c]3ccccc3)ccc2c1 [8Ge] ... 0.75

Kindly consider the entry below.
Input line: Can you look up the measured φDCM (quantum yield) of COc1cc2c(cc1C#Cc1ccc(-c3ccccc3)cc1)[Si](c1ccccc1)(c1ccccc1)c1cc(C#Cc3ccc(-c4ccccc4)cc3)c(OC)cc1-2 [7Si] for me?
Output line: 0.82

Source listed as patent US12473308B2.
